Molecular target: T1, active human C1s purified from human serum (CompTech, Tyler, TX, catalog number A104) (human, UniProt P09871 16-437; P09871 438-688)
T1 construct: Serum-derived material, biotinylated for the ELISA; also called human active C1s; active C1s
T1 sequence 1: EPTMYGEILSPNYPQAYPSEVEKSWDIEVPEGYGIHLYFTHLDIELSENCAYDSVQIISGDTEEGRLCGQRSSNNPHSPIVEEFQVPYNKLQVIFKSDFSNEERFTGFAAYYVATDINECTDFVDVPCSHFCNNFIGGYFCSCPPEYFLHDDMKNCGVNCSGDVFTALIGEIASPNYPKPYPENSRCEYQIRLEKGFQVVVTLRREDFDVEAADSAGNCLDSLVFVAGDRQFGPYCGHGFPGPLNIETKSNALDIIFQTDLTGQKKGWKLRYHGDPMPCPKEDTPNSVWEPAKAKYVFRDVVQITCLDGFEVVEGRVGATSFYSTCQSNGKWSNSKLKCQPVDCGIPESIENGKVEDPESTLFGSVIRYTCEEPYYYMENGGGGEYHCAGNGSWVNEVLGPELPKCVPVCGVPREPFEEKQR
T1 sequence 2: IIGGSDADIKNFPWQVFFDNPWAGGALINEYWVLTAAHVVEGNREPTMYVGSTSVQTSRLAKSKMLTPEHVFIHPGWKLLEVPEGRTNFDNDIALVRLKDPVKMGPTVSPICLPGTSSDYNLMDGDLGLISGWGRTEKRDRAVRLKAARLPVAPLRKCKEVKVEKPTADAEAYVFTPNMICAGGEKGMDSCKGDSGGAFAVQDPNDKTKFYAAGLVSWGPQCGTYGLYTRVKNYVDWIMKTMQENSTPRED
Experiment: SPR, antibody captured via anti-human Fc, C1s in solution
Would you mind telling me the reported kon of each entry?
One number for each entry, in M⁻¹ s⁻¹.

- MAB3 (antibody, V domains shown, IgG) VH: QVQLVESGGGLVKPGGSLRLSCAASGFTFSDYYMSWIRQAPGKGLEWVSYISRSGSTKYYADSVKGRFTISRDNAKNSLYLQMNSLRAEDTAVYYCARDETDYAFDEWGQGTLVTVSS VL: DIQMTQSPSSLSASVGDRVTITCQASQDISNYLNWYQQKPGKAPKLLIYDASNLETGVPSRFSGSGSGTDFTFTISSLQPEDIATYYCKQYEDYPLTFGGGTKVEIK: 224000
- MAB30 (antibody, V domains shown, IgG) VH: EVQLVESGGGVVRPGGSLRLSCAASGFTFDDYGMSWVRQAPGKGLEWVSGINWEGGSTGYADSVKGRFTISRDNAKNSLYLQMNSLRAEDTALYYCARDEQLGGRHYYYYYMDVWGKGTTVTVSS VL: DIQMTQSPSSLSASVGDRVTITCRASQGIRNDLGWYQQKPGKAPKRLIYTASNLQSGVPSRFSGSGSGTEFTLTISSLQPEDFATYYCLQYNAYPLIFGGGTKVEIK: 115000
- MAB9 (antibody, V domains shown, The IgG4 YTE form is entered separately as IgG4-MAB9) VH: QVQLVESGGGLVKPGGSLRLSCAASGFTFSDYYMSWIRQAPGKGLEWVSYISRSGSTKYYADSVKGRFTISRDNAKNSLYLQMNSLRAEDTAVYYCARDENYALDWWGQGTLVTVSS VL: DIQMTQSPSSLSASVGDRVTITCQASQDISNYLNWYQQKPGKAPKLLIYDASNLETGVPSRFSGSGSGTDFTFTISSLQPEDIATYYCQHYEDYPLTFGGGTKVEIK: 414000
- MAB28 (antibody, V domains shown, IgG) VH: EVQLVESGGGVVRPGGSLRLSCAASGFTFDDYGMSWVRQAPGKGLEWVSGINWEGGSTGYADSVKGRFSISRDNAKNSLYLQMNSLRAEDTALYYCARDEQLGGLKYYYYYMDVWGKGTTVTVSS VL: DIQMTQSPSSLSASVGDRVTITCRASQGIRNDLGWYQQKPGKAPKRLIYTASNLQSGVPSRFSGSGSGTEFTLTISSLQPEDFATYYCLQYHSYPLRFGGGTKVEIK: 141000
- MAB24 (antibody, V domains shown, IgG) VH: EVQLVESGGGVVRPGGSLRLSCAASGFTFDDYGMSWVRQAPGKGLEWVSGINWEGGSTGYADSVKGRFTISRDNAKNSLYLQMNSLRAEDTALYYCARDEQLGGTTYYYYYMDVWGKGTTVTVSS VL: DIQMTQSPSSLSASVGDRVTITCRASQGIRNDLGWYQQKPGKAPKRLIYTASNLQSGVPSRFSGSGSGTEFTLTISSLQPEDFATYYCLQTNIYPLTFGGGTKVEIK: 93900

Each binder below has a reported value. Please supply its kon.
1. MAB25 (antibody, V domains shown, IgG) VH: EVQLVESGGGVVRPGGSLRLSCAASGFTFDDYGMSWVRQAPGKGLEWVSGINWEGGSTGYADSVKGRFTISRDNAKNSLYLQMNSLRAEDTALYYCARDEQLGGIKYYYYYMDVWGKGTTVTVSS VL: DIQMTQSPSSLSASVGDRVTITCRASQGIRNDLGWYQQKPGKAPKRLIYTASNLQSGVPSRFSGSGSGTEFTLTISSLQPEDFATYYCLQYKQYPLTFGGGTKVEIK
2. MAB2 (antibody, V domains shown, IgG) VH: QVQLVESGGGLVKPGGSLRLSCAASGFTFSDYYMSWIRQAPGKGLEWVSYISRSGSTKYYADSVKGRFTISRDNAKNSLYLQMNSLRAEDTAVYYCARDETDYGWDYWGQGTLVTVSS VL: DIQMTQSPSSLSASVGDRVTITCQASQDISNYLNWYQQKPGKAPKLLIYDASNLETGVPSRFSGSGSGTDFTFTISSLQPEDIATYYCKQYEDYPLTFGGGTKVEIK
3. MAB26 (antibody, V domains shown, IgG) VH: EVQLVESGGGVVRPGGSLRLSCAASGFTFDDYGMSWVRQAPGKGLEWVSGINWEGGSTGYADSVKGRFSISRDNAKNSLYLQMNSLRAEDTALYYCARDEQLGGLKYYYYYMDVWGKGTTVTVSS VL: DIQMTQSPSSLSASVGDRVTITCRASQGIRNDLGWYQQKPGKAPKRLIYTASNLQSGVPSRFSGSGSGTEFTLTISSLQPEDFATYYCLQTNIYPLTFGGGTKVEIK

-- reply
1. 111000
2. 118000
3. 84500
